- assay text: Ratio of drug concentration in brain to plasma of C57BL/6 mouse plasma at 1 mg/kg, ip measured after 1 hr by LC-MS/MS analysis
- Format: ADME, organism-based
- test conditions: read-out: BPR
measured endpoint: Kp at 1 h

mol=O=C(NO)c1ccc(CN2CCCc3cccnc32)c(F)c1 result=1.5

###

- assayed system: Histone deacetylase 8 (Homo sapiens)
- Sequence (Q9BY41 whole entry): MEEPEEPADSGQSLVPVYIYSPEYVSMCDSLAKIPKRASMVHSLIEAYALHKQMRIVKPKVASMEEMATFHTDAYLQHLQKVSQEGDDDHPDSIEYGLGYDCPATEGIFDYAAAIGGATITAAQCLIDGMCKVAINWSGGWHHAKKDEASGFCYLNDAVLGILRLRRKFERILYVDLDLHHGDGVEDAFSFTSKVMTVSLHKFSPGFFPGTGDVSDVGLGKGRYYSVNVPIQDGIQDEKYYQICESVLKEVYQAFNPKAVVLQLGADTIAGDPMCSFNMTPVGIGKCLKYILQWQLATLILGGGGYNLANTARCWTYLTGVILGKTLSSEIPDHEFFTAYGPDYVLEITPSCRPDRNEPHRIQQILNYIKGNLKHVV
measured endpoint: IC50 (nM)

mol=O=C(NO)c1ccc(CN2CCCc3cccnc32)c(F)c1 measured_endpoint=IC50 unit_descriptor=nM result=597

###

- assay text: Drug concentration in C57BL/6 mouse brain at 1 mg/kg, ip measured after 3 hrs by LC-MS/MS analysis
- Format: ADME, organism-based
- test conditions: read-out: Ct
measured endpoint: concentration at 3 h (ng/mL)

mol=O=C(NO)c1ccc(CN2CCCc3cccnc32)c(F)c1 measured_endpoint="concentration at 3 h" result=1.07

###

- assay text: Drug concentration in C57BL/6 mouse brain at 1 mg/kg, ip measured after 0.5 hrs by LC-MS/MS analysis
- Format: ADME, organism-based
- test conditions: read-out: Ct
measured endpoint: concentration at 0.5 h (ng/mL)

mol=O=C(NO)c1ccc(CN2CCCc3cccnc32)c(F)c1 result=13.2

###

- assay text: Drug concentration in C57BL/6 mouse plasma at 1 mg/kg, ip measured after 3 hrs by LC-MS/MS analysis
- Type: ADME, organism-based
measured endpoint: concentration at 3 h (ng/mL)

mol=O=C(NO)c1ccc(CN2CCCc3cccnc32)c(F)c1 unit_descriptor=ng/mL result=0.82

###

- assay text: Ratio of drug concentration in brain to plasma of C57BL/6 mouse plasma at 1 mg/kg, ip measured after 0.5 hr by LC-MS/MS analysis
- Type: ADME, organism-based
- test conditions: read-out: BPR
measured endpoint: Kp at 0.5 h

mol=O=C(NO)c1ccc(CN2CCCc3cccnc32)c(F)c1 measured_endpoint="Kp at 0.5 h" result=2.1

###

- assay text: Drug concentration in C57BL/6 mouse plasma at 1 mg/kg, ip measured after 1 hr by LC-MS/MS analysis
- Format: ADME, organism-based
measured endpoint: concentration at 1 h

mol=O=C(NO)c1ccc(CN2CCCc3cccnc32)c(F)c1 result="4.32 ng/mL"

###

- assay text: Drug concentration in C57BL/6 mouse plasma at 1 mg/kg, ip measured after 0.5 hrs by LC-MS/MS analysis
- Format: ADME, organism-based
measured endpoint: concentration at 0.5 h

mol=O=C(NO)c1ccc(CN2CCCc3cccnc32)c(F)c1 result="6.21 ng/mL"

###

- assay text: Drug concentration in C57BL/6 mouse brain at 1 mg/kg, ip measured after 1 hr by LC-MS/MS analysis
- Format: ADME, organism-based
- test conditions: read-out: Ct
measured endpoint: concentration at 1 h (ng/mL)

mol=O=C(NO)c1ccc(CN2CCCc3cccnc32)c(F)c1 measured_endpoint="concentration at 1 h" result=6.48

###

- assayed system: Histone deacetylase 2 (Homo sapiens)
- Sequence (Q92769 whole entry): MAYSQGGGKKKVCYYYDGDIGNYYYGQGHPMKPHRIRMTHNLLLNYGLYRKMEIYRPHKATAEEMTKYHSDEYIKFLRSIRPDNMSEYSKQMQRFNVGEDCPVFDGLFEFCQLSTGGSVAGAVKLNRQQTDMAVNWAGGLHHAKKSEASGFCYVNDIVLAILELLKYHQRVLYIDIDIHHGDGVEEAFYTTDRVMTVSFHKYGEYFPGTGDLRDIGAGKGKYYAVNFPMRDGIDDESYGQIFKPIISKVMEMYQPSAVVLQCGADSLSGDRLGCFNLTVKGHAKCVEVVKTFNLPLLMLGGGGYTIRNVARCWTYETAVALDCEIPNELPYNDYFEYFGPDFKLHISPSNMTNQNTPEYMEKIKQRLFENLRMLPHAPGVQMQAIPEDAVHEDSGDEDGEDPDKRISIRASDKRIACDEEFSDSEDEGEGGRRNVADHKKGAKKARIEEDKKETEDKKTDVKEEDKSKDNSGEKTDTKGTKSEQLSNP
pIC50: −log10 of the molar value.
measured endpoint: pIC50

mol=O=C(NO)c1ccc(CN2CCCc3cccnc32)c(F)c1 measured_endpoint=pIC50 result="< 5.00"
